- experiment.notes: chemical genetic growth profiling, strain panel (AID 1159580);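 further: tested at 20 µM; growth read once vehicle control cultures reached saturation at 30 °C; 1 = growth at the plate median or of vehicle wells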
- test.conditions: S. cerevisiae deletion strains, growth OD, locus YMR263W, strain SAP30, hits give low values
Hit rate of the full screen: of about 5,500 compounds, about 2,000 (36%) were called active. Another 18% or so got no clear call; they are omitted. The list shows a part of the results.
Doc: threshold 1 (exclusive). Items with normalized growth beneath it return 1 (yes); others return 0 (no).

CC(N=C(NC#N)Nc1ccncc1)C(C)(C)C (stereo not given): 0 (no)

Turning to the following molecule.
query: Could you please tell me whether normalized growth recorded for "Cc1ccc(-c2nn[nH]n2)cc1Cl" is less than 1?
result: 1 (yes)

====

- experiment.notes: chemical genetic growth profiling, strain panel (AID 1159580)
- test.conditions: S. cerevisiae deletion strains, growth OD, locus YJL187C, strain SWE1 (second series)
Screen size: about 5,500 compounds; about 2,000 (36%) were called active. Not shown: some 18% with an inconclusive outcome. Cut-off read from the data, not from the text of the source: active = normalized growth mostly below about 0.91 (no sharp cut-off); inconclusive = no clear call, values can overlap the other calls; inactive = mostly above about 0.92. The list shows a part of the results.
Select the matching outcome among active, inactive

Past entries and their recorded results:
Oc1c(Cl)cc(Cl)cc1Sc1cc(Cl)cc(Cl)c1O: inactive
CC1=CC(=O)c2ccccc2C1=O: active
CC(=O)O[C@@H]1CC2C(C)(C)[C@H](O)C=C[C@]2(C)C2CC[C@]3(C)C(=CC(=O)O[C@H]3c3ccoc3)[C@@]21C (stereo partly drawn): inactive
CC(=O)N[C@@H](Cc1c[nH]c2ccccc12)C(N)=O: inactive
Nc1ccc(S(=O)(=O)NC(=O)c2ccccc2)cc1: inactive

query: Tell me the recorded outcome of this test for CC1(C)CC2C1CC[C@]1(CBr)CCC3C(CC(=O)O)C(=O)O[C@@]32C1 (stereo partly drawn) .
result: inactive

query: Tell me the recorded outcome of this test for "CCCN(CCC)S(=O)(=O)c1ccc(C(=O)O)cc1" .
result: inactive

query: Tell me the recorded outcome of this test for "O=C(O)c1ccc(S(=O)(=O)N(Cl)Cl)cc1" .
result: inactive

query: Tell me the recorded outcome of this test for "CCCc1cc(=O)[nH]c(=S)[nH]1" .
result: inactive

query: Tell me the recorded outcome of this test for CC(=O)O[C@H]1CC[C@@]2(C)C(C[C@@H](OC(C)=O)[C@@]3(C)C4=CC(=O)O[C@@H](c5ccoc5)[C@]4(C)CCC23)C1(C)C (stereo partly drawn) .
result: inactive

query: Tell me the recorded outcome of this test for CC(N=C(NC#N)Nc1ccncc1)C(C)(C)C (stereo not drawn) .
result: inactive

query: Tell me the recorded outcome of this test for "O=C(O)C1=CCCNC1" .
result: inactive

query: Tell me the recorded outcome of this test for CC12CCC3C(CC3(C)C)C(C)(CCC1=O)O2 (stereo not drawn) .
result: inactive

====

- experiment.notes: chemical genetic growth profiling, strain panel (AID 1159580)
- test.conditions: S. cerevisiae deletion strains, growth OD, locus YJL134W, strain LCB3
The campaign covered roughly 5,500 compounds. About 2,000 (36%) were called active. Inconclusive results (about 18%) are left out. No stated cut-off is given here; in the data, active means normalized growth mostly below about 0.91 (no sharp cut-off); inconclusive means no clear call, values can overlap the other calls; inactive means mostly above about 0.92. Some of the results follow.
Select the matching outcome among active, inactive

NC1=NCCN1CC(=O)O: inactive

query: Tell me the recorded outcome of this test for "CC(=O)Oc1cccc(O)c1" .
result: inactive

query: Tell me the recorded outcome of this test for CC(C)CC(NC(=O)OCC1c2ccccc2-c2ccccc21)C(=O)O (stereo not drawn) .
result: inactive

====

- experiment.notes: chemical genetic growth profiling, strain panel (AID 1159580)
- test.conditions: S. cerevisiae deletion strains, growth OD, locus YOR069W, strain VPS5
In all, about 5,500 compounds went through this assay and about 2,000 (36%) were called active. Another 18% or so got no clear call; they are omitted. No stated cut-off is given here; in the data, active means normalized growth mostly below about 0.91 (no sharp cut-off); inconclusive means no clear call, values can overlap the other calls; inactive means mostly above about 0.92. This is one part of the list.
Select the matching outcome among active, inactive

CC(C)CCCC(C)C1CC[C@@]2(C)C3=C(CC[C@]12C)[C@@]1(C)CC[C@H](O)C(C)(C)C1CC3 (stereo partly specified): inactive
CC(C)CCCC(C)[C@H]1CCC2C3CC=C4C[C@@H](O)CC[C@]4(C)C3CC[C@@]21C (stereo partly specified): inactive
N[C@@H](CCC(=O)N[C@@H](CS)C(=O)NCC(=O)O)C(=O)O: inactive

query: Tell me the recorded outcome of this test for "CN(C)c1ccc(O)c2c1C[C@H]1C[C@H]3[C@H](N(C)C)C(=O)C(C(N)=O)=C(O)[C@@]3(O)C(=O)C1=C2O" .
result: inactive

====

Hi there, I'd appreciate the recorded normalized growth for every entry that follows.
- experiment.notes: chemical genetic growth profiling, strain panel (AID 1159580);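 further: tested at 20 µM; growth read once vehicle control cultures reached saturation at 30 °C; 1 = growth at the plate median or of vehicle wells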
- test.conditions: S. cerevisiae deletion strains, growth OD, locus YPL256C, strain CLN2, hits give low values
Screen size: about 5,500 compounds; about 2,000 (36%) were called active. Not shown: some 18% with an inconclusive outcome. This is one part of the list.
One number for each entry.

Cc1ccc2nc(-c3ccc4c(c3)OCCO4)cn2c1: 0.923
CC(C)=CCc1c2c(c3occ(-c4ccc(O)c(O)c4)c(=O)c3c1O)C=CC(C)(C)O2: 0.921
CC(C)=CCc1c2c(c3occ(-c4ccc(O)cc4)c(=O)c3c1O)C=CC(C)(C)O2: 1

Quick one: give me normalized growth for each item below, same order please.
1. Brc1ccc(-c2csc(-c3ccncc3)n2)cc1
2. Cc1onc(-c2c(F)cccc2Cl)c1/C(N)=N\OC(=O)c1ccc(C(C)(C)C)cc1

result:
1. 0.578
2. 1.05

====

- experiment.notes: chemical genetic growth profiling, strain panel (AID 1159580);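 further: tested at 20 µM; growth read once vehicle control cultures reached saturation at 30 °C; 1 = growth at the plate median or of vehicle wells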
- test.conditions: S. cerevisiae deletion strains, growth OD, locus YGL227W, strain vid30, hits give low values
In all, about 5,500 compounds went through this assay and about 2,000 (36%) were called active. Inconclusive results (about 18%) are left out. This is one part of the list.
Hi there, I'd appreciate the recorded normalized growth for every entry that follows.
Answers are plain numbers.

Please review the entries below; each comes with its answer.
CC(=O)OCC(=O)[C@@]1(O)[C@H](C)CC2C3CCC4=CC(=O)C=C[C@]4(C)[C@@]3(F)[C@@H](O)C[C@@]21C (some centres undefined): 0.974
COc1ccc([C@@H]2CC(=O)c3c(O)cc(O[C@@H]4O[C@H](CO[C@H]5O[C@@H](C)[C@H](O)[C@@H](O)[C@H]5O)[C@@H](O)[C@H](O)[C@H]4O)cc3O2)cc1O: 0.973
C[C@H]1c2cccc(O)c2C(O)=C2C(=O)[C@]3(O)C(O)=C(C(N)=O)C(=O)[C@@H](N(C)C)[C@@H]3[C@@H](O)[C@@H]21: 0.987
CC(C)(C)NCC(O)c1ccc(O)c(CO)c1 (centres undefined): 0.989
CN(C)[C@@H]1C(=O)C(C(N)=O)=C(O)[C@@]2(O)C(=O)C3=C(O)c4c(O)ccc(Cl)c4[C@@](C)(O)[C@H]3C[C@@H]12: 0.984
CN(C)[C@@H]1C(=O)C(C(N)=O)=C(O)[C@@]2(O)C(=O)C3=C(O)c4c(O)cccc4[C@@](C)(O)[C@H]3[C@H](O)[C@@H]12: 1.04

Quick one: give me normalized growth for each item below, same order please.
1. CN(C)[C@@H]1C(=O)C(C(N)=O)=C(O)[C@@]2(O)C(=O)C3=C(O)c4c(O)ccc(Cl)c4[C@@H](O)[C@H]3C[C@@H]12
2. O=C(O)c1ccccc1
3. OC[C@H]1O[C@@](CO)(O[C@@H]2O[C@H](CO)[C@@H](O)[C@H](O)[C@H]2O)[C@@H](O[C@@H]2O[C@H](CO)[C@@H](O)[C@H](O)[C@H]2O)[C@@H]1O
4. CN1CCN(C(=O)OC2c3nccnc3C(=O)N2c2ccc(Cl)cn2)CC1 (centres undefined)
5. CS(=O)(=O)c1ccc([C@@H](O)[C@@H](CO)NC(=O)C(Cl)Cl)cc1
6. C[n+]1ccccc1/C=N/O
7. CCCN(CCC)S(=O)(=O)c1ccc(C(=O)O)cc1

result:
1: 0.982; 2: 0.97; 3: 1.02; 4: 0.976; 5: 1.02; 6: 0.994; 7: 0.988

====

- experiment.notes: chemical genetic growth profiling, strain panel (AID 1159580);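 further: tested at 20 µM; growth read once vehicle control cultures reached saturation at 30 °C; 1 = growth at the plate median or of vehicle wells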
- test.conditions: S. cerevisiae deletion strains, growth OD, locus YAL013W, strain DEP1
Among all 5,500 compounds or so, about 2,000 (36%) were called active. About 18% were inconclusive and are not listed. Rule as the data show it: active = normalized growth mostly below about 0.91 (no sharp cut-off); inconclusive = no clear call, values can overlap the other calls; inactive = mostly above about 0.92. The list shows a part of the results.
Select the matching outcome among class 1 for active, class 0 for inactive

Past entries and their recorded results:
CCN(CC)CCOCCOC(=O)C1(c2ccccc2)CCCC1: class 0
CC(N=C(NC#N)Nc1ccncc1)C(C)(C)C (configuration not stated): class 0
O=C1NC2CC2N1C(=O)OCc1ccccc1 (configuration not stated): class 0

query: Tell me the recorded outcome of this test for CCN(CC)CCOC(=O)C(c1ccccc1)C1CCCCC1 (configuration not stated) .
result: class 0

query: Tell me the recorded outcome of this test for "CCN(CC)CCOC(=O)C1(C2CCCCC2)CCCCC1" .
result: class 1

query: Tell me the recorded outcome of this test for NCC(N)C(=O)c1ccccc1 (configuration not stated) .
result: class 0

query: Tell me the recorded outcome of this test for "COC(OC)c1cc(=O)[nH]c(=S)[nH]1" .
result: class 0

Cited source for all entries: PubChem BioAssay AID1159580
